Tested on: Human alphaherpesvirus 1
method-description: Antiviral activity against herpes simplex virus type-1 (HSV-1)
Type: functional, organism-based
Measured IC50, listed per entry for reference.

cpd-smiles: Clc1cccc(Cn2c(Cl)nc3cc(Cl)c(Cl)cc32)c1
target-entity: Human alphaherpesvirus 1
IC50: > 100 µM

cpd-smiles: Nc1nc2cc(Cl)c(Cl)cc2n1Cc1ccc(F)cc1
target-entity: Human alphaherpesvirus 1
IC50: 70 µM

Request: Fill in the blank: the reported IC50 of "Cc1ccc(Cn2c(Br)nc3cc(Cl)c(Cl)cc32)cc1" is ____.
Response: > 100 µM

Request: Fill in the blank: the reported IC50 of "Clc1ccc(Cn2c(Cl)nc3cc(Cl)c(Cl)cc32)cc1" is ____.
Response: > 100 µM

Request: Fill in the blank: the reported IC50 of "Clc1cc2nc(Cl)n(Cc3ccccc3Cl)c2cc1Cl" is ____.
Response: > 100 µM

Request: Fill in the blank: the reported IC50 of "Clc1cc2nc(NC3CC3)n(Cc3ccccc3)c2cc1Cl" is ____.
Response: > 100 µM

Request: Fill in the blank: the reported IC50 of "Clc1cc2nc(Br)n(Cc3ccccc3Cl)c2cc1Cl" is ____.
Response: > 100 µM

Request: Fill in the blank: the reported IC50 of "COc1ccc(Cn2c(Cl)nc3cc(Cl)c(Cl)cc32)cc1" is ____.
Response: > 100 µM

Request: Fill in the blank: the reported IC50 of "Nc1nc2cc(Cl)c(Cl)cc2n1Cc1cccc(C(F)(F)F)c1" is ____.
Response: 60 µM

Request: Fill in the blank: the reported IC50 of "FC(F)(F)c1ccc(Cn2c(Cl)nc3cc(Cl)c(Cl)cc32)cc1" is ____.
Response: > 100 µM

Request: Fill in the blank: the reported IC50 of "FC(F)(F)c1cc(Cn2c(Br)nc3cc(Cl)c(Cl)cc32)cc(C(F)(F)F)c1" is ____.
Response: 65 µM

Request: Fill in the blank: the reported IC50 of "Clc1cccc(Cn2c(Br)nc3cc(Cl)c(Cl)cc32)c1" is ____.
Response: 70 µM

---

Tested on: Human alphaherpesvirus 1
method-description: Antiviral activity against herpes simplex virus type-1 (HSV-1)
Assay type: functional, organism-based
observation-type: IC50

cpd-smiles: Cc1ccc(Cn2c(Cl)nc3cc(Cl)c(Cl)cc32)cc1
result: > 100 µM

cpd-smiles: Clc1ccc(Cn2c(Cl)nc3cc(Cl)c(Cl)cc32)cc1Cl
result: > 100 µM

cpd-smiles: Nc1nc2cc(Cl)c(Cl)cc2n1Cc1cccc(Cl)c1
result: 70 µM

cpd-smiles: Nc1nc2cc(Cl)c(Cl)cc2n1Cc1ccccc1
result: 152 µM

cpd-smiles: Nc1nc2cc(Cl)c(Cl)cc2n1Cc1ccccc1Cl
result: > 100 µM

Request: Fill in the blank: the reported IC50 of "Nc1nc2cc(Cl)c(Cl)cc2n1Cc1ccc(Cl)c(Cl)c1" is ____.
Response: 50 µM

Request: Fill in the blank: the reported IC50 of "COc1ccc(Cn2c(N)nc3cc(Cl)c(Cl)cc32)cc1" is ____.
Response: > 100 µM

Request: Fill in the blank: the reported IC50 of "Cc1cccc(Cn2c(Cl)nc3cc(Cl)c(Cl)cc32)c1" is ____.
Response: > 100 µM

---

System: Human immunodeficiency virus 2
method-description: Compound was tested for antiviral activity against HIV-2
Assay type: functional, organism-based
observation-type: IC50

cpd-smiles: Clc1cc2nc(Cl)n(Cc3ccccc3Cl)c2cc1Cl
result: > 30 µM
--
cpd-smiles: Clc1ccc(Cn2c(Cl)nc3cc(Cl)c(Cl)cc32)cc1
result: > 30 µM

Please find the next compound below.
Request: Fill in the blank: the reported IC50 of "Cc1cccc(Cn2c(Cl)nc3cc(Cl)c(Cl)cc32)c1" is ____.
Response: > 30 µM

---

Measured pIC50, listed per entry for reference.
Tested on: HFF
method-description: Visual cytotoxicity scored on HFF cells at a time of HCMV plaque enumeration
Type: functional, cell-based
measurement-setup: Homo sapiens
pIC50: −log10 of the molar value.

Answered cases to consult:
cpd-smiles: Clc1ccc(Cn2c(Cl)nc3cc(Cl)c(Cl)cc32)cc1Cl
pIC50: < 4.00

cpd-smiles: Nc1nc2cc(Cl)c(Cl)cc2n1Cc1ccc(C(F)(F)F)cc1
pIC50: 4.49

Request: Fill in the blank: the reported pIC50 of "Clc1cccc(Cn2c(Cl)nc3cc(Cl)c(Cl)cc32)c1" is ____.
Response: < 4.00

Request: Fill in the blank: the reported pIC50 of "O=[N+]([O-])c1ccc(Cn2c(Br)nc3cc(Cl)c(Cl)cc32)cc1" is ____.
Response: < 4.00

Request: Fill in the blank: the reported pIC50 of "Cc1cccc(Cn2c(N)nc3cc(Cl)c(Cl)cc32)c1" is ____.
Response: < 4.00

Request: Fill in the blank: the reported pIC50 of "COc1ccc(Cn2c(Br)nc3cc(Cl)c(Cl)cc32)cc1" is ____.
Response: < 4.00

---

Tested on: Human alphaherpesvirus 1
method-description: Antiviral activity against herpes simplex virus type-1 (HSV-1)
Format: functional, organism-based
observation-type: IC50 (µM)
Please give a number only; it is taken to be in µM.

cpd-smiles: CC(C)(C)c1ccc(Cn2c(N)nc3cc(Cl)c(Cl)cc32)cc1
observation-type: IC50
quantitative-result: 60

Please find the next compound below.
Request: Fill in the blank: the reported IC50 of "Nc1nc2cc(Cl)c(Cl)cc2n1Cc1cc(C(F)(F)F)cc(C(F)(F)F)c1" is ____.
Response: 60
